Assay: Enzymatic kinetic measurements of purified proteins with compound A as substrate
Type: biochemical
Settings: purified protein, compound A 0-1000 μM as substrate
readoutType: Kcat

Indicate the recorded Kcat value for this molecule: SEQ ID NO: 122: RdpA mutant L82H + V187L + F182W + G103L + R104G + V105Y (protein) MHAALSPLSQRFERIAVQPLTGVLGAEITGVDLREPLDDSTWNEILDAFHTYQVIYFPGQAITNEQHIAFSRRFGPVDPVPHLKSIEGYPEVQMIRREANESLGYIGDDWHTDSTFLDAPPAAVVMRAIDVPEHGGDTGFLSMYTAWETLSPTMQATIEGLNVVHSATRVFGSLYQAQNRRWSNTSLKVMDVDAGDRETVHPLVVTHPGSGRKGLYVNQVYCQRIEGMTDAESKPLLQFLYEHATRFDFTCRVRWKKDQVLVWDNLCTMHRAVPDYAGKFRYLTRTTVGGVRPAR
1.1 S^−1
